measured_on: Prostate-specific antigen (Homo sapiens, UniProt P07288)
Sequence (P07288 whole entry): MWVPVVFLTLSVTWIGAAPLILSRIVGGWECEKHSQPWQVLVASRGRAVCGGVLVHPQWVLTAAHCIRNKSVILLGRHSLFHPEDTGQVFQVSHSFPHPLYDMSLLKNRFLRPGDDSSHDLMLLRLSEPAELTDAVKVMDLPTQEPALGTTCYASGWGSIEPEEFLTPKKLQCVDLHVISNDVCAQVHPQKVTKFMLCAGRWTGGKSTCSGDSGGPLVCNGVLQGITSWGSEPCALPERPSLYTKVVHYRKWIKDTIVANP
Residues, ends and D or L forms follow the SMILES beside them.
observation_type: Ki (µM)
Response body: numeric value in µM, unit text excluded.

(Q) What measured Ki goes with CC(C)C[C@H](NC(=O)[C@H](CCCCN)NC(=O)[C@H](CO)NC(=O)[C@@H](N)CO)C(=O)N[C@H](C=O)CCC(N)=O (H-SSKLQ-aldehyde) ?
(A) 45

###

method: Half life in ip dosed mouse
Format: ADME, organism-based
reported_conditions: in vivo
observation_type: half-life (h)
Give the value, in units of h, as a plain number.

(Q) Bench note: what half-life did CCCC[C@H](NC(=O)[C@H](CCC(N)=O)NC(=O)[C@H](CO)NC(=O)C[C@H](Cc1ccc2ccccc2c1)NC(=O)CCCCCNC(=O)c1ccc([125I])cc1)C(=O)N[C@H](Cc1ccccc1)B(O)O show?
(A) 2.7

(Q) # iterate: CCCC[C@H](NC(=O)[C@H](CCC(N)=O)NC(=O)[C@H](CO)NC(=O)[C@H](CO)NC(=O)CCCCCNC(=O)c1ccc([125I])cc1)C(=O)N[C@H](CCCBr)B(O)O
(A) 0.2
